Experiment: NCI Yeast Anticancer Drug Screen. Data for the sgs1 mgt1 strain (AID 161)
Details: S. cerevisiae sgs1 mgt1 strain, at 50.0 µM
Compounds without any hit were thinned out: in the full panel of roughly 79,000, 15% have a hit. Activity calls are given as the source filed them. No stated cut-off is given here; in the data, active means growth inhibition above about 70%; inactive means the rest.
The reply should name one outcome from active, inactive

Example entries and their recorded answers appear below.
compound: CN(C)CCCNc1ccc2c(=O)n(CCN(C)C)c(=O)n3c4ccccc4c(=O)c1c23
assignedCategory: inactive
--
compound: CCCCCCCC/C=C\CCCCCCCCN1CCOCC1
assignedCategory: active
--
compound: COC(=O)C(C#N)=C(SC)SC
assignedCategory: active
--
compound: NC(=O)/C(=N\NC(=O)c1cc2ccccc2cc1O)C1C(=O)N(c2ccccc2)N=C1N (centres undefined)
assignedCategory: inactive

Prompt: Kindly provide the recorded test outcome for the following compound: "CCC[CH2][Sn]([CH2]CCC)([O]C(=O)c1cc(F)cc(F)c1)[O]C(=O)c1cc(F)cc(F)c1"
Completion: inactive

Prompt: Kindly provide the recorded test outcome for the following compound: CN(Cc1cnc2nc(N)nc(N)c2n1)c1ccc(C(=O)NC(CCC(=O)O)C(=O)O)cc1 (centres undefined)
Completion: inactive

Prompt: Kindly provide the recorded test outcome for the following compound: C=C1C[C@@]2(OC)OCC[C@H]3C(C)=CCC(C1=O)[C@]32C(=O)OC (some centres undefined)
Completion: active

Prompt: Kindly provide the recorded test outcome for the following compound: CCCCCCCCCCCCCCOC(=O)C(N)Cc1ccc(O)cc1 (centres undefined)
Completion: active

Prompt: Kindly provide the recorded test outcome for the following compound: "CC(C)(CCBr)[N+](=O)[O-]"
Completion: inactive

Prompt: Kindly provide the recorded test outcome for the following compound: "COC(=O)c1cc2c(c(C(=O)OC)c1O)C(=O)C=CC2=O"
Completion: active

Prompt: Kindly provide the recorded test outcome for the following compound: "CC1=C(C(=O)Nc2cccc(Cl)c2)C(c2ccccc2O)C(C(=O)Nc2cccc(Cl)c2)=C(C)N1"
Completion: inactive

Prompt: Kindly provide the recorded test outcome for the following compound: "Cc1nc(N2N=C(c3ccc(Cl)cc3)CCC2=O)sc1[N+](=O)[O-]"
Completion: active
